tested on: BT474 (human breast carcinoma); assay: In vitro tumor cell proliferation assay (Cell Titer-Glo luminescent cell viability), BT474; type: cell-based; details: BT-474, 72 h, BT474 cells, 72 hours of drug exposure, ATP luminescence readout, read-out: IC50, anti-proliferative activity (inhibition of cell proliferation)
Reported property: IC50

Below, each entry is followed by its recorded IC50 result.
O[C@H](CNCCN1CCOCC1)Cn1ncc2c1CCc1c-2sc2ncnc(Nc3ccc(OCc4cccc(F)c4)c(Cl)c3)c12 [Example 165] ... ≤ 1 µM
CN1CCN(CCn2cc3c(n2)CCc2c-3sc3ncnc(Nc4ccc(OCc5ccccn5)c(Cl)c4)c23)CC1 [Example 102] ... ≤ 1 µM
OCCn1cc2c(n1)CCc1c-2sc2ncnc(Nc3ccc(OCc4ccccc4)c(Cl)c3)c12 [Example 124] ... ≤ 1 µM

[in] Sample CN(C)CCNCCn1cc2c(n1)CCc1c-2sc2ncnc(Nc3ccc(F)c(Cl)c3)c12 [Example 16] — what was its IC50?
[out] ≤ 5 µM

[in] Name the recorded IC50 for OC[C@H](O)Cn1cc2c(n1)CCc1c-2sc2ncnc(Nc3ccc(F)c(Cl)c3)c12 [Example 44] .
[out] ≤ 1 µM

[in] Fill in the blank: the reported IC50 of COCCN1CCN(CCn2cc3c(n2)CCc2c-3sc3ncnc(Nc4ccc(OCc5cccc(F)c5)c(Cl)c4)c23)CC1 [Example 122] is ____.
[out] ≤ 1 µM

[in] # query: IC50 of entry OC[C@H]1CCCN1CCn1cc2c(n1)CCc1c-2sc2ncnc(Nc3ccc(F)c(Cl)c3)c12 [Example 29]
[out] ≤ 5 µM

[in] Data request, read-out IC50, for COCCN(CCn1cc2c(n1)CCc1c-2sc2ncnc(Nc3ccc(F)c(Cl)c3)c12)C(C)C [Example 21]
[out] ≤ 5 µM

[in] Report IC50 for Fc1cccc(Cn2ncc3cc(Nc4ncnc5sc6c(c45)CCc4n[nH]cc4-6)ccc32)c1 [Example 288] please.
[out] ≤ 1 µM

Attribution: patent US8207172B2
